- Subject of test: T1, recombinant human IL-1α (human, UniProt P01583 113-271)
- T1 construct: also called hIL-1α; rh IL-1α
- T1 sequence: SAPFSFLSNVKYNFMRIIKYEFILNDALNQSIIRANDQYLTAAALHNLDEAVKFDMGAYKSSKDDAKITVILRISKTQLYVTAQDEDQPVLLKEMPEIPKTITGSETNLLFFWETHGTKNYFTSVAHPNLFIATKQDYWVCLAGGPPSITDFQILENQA
- Assay explanation: SPR (BIACORE), antibody captured, IL-1α in solution
Measured quantity: pKd
As a rule, pKd stands for the negative log10 of the concentration, concentration in M.

h3D12-362-10/372-15 (antibody, V domains shown) VH: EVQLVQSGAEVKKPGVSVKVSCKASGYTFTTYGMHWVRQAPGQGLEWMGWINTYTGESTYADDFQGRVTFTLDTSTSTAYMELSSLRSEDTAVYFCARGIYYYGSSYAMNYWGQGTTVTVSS VL: DIQMTQSPSSLSASVGDRVTITCRASQDISNMLNWYQQKPGKTPKLLIYYTSRLYPGVPSRFSGSGSGTDYTFTISSLQPEDIATYFCQQGKTLPYAFGQGTKLEIK: 9.94

Param item = h3D12.r37 (antibody, V domains shown) VH: EIQLVQSGAEVKKPGASVKVSCKASGYTFKYYGMNWVRQAPGQGLERMGWINTYTGESRYADDFKGRVTFTLDTSTSTAYMELSSLRSEDTAVYYCARDIYYFGSDYAMDYWGQGTTVTVSS VL: DIQMTQSPSSLSASVGDRVTITCRASQDISNRLNWYQQKPGKAPKLLIYYASRLKPGVPSRFSGSGSGTDYTFTISSLQPEDIATYFCQQGNTPPYTFGQGTKLEIK ; retrieve measured pKd.
10.55

// pKd lookup, key: h3D12.r10 (antibody, V domains shown) VH: EIQLVQSGAEVKKPGASVKVSCKASGYTFAHYGMNWVRQAPGQGLEWMGWINTYTGQSTYADDFKGRFTFTLDTSTSTAYMELSSLRSEDTAVYYCARGIYYFGSNYAMDYWGQGTTVTVSS VL: DIQMTQSPSSLSASVGDRVTITCRASQDISNMLNWYQQKPGKTPKLLIYYTSRLRSGVPSRFSGSGSGTDYTFTISSLQPEDIATYFCQQGKKPPYTFGQGTKLEIK
10.49
